IC50 reference
- ASSAY SYSTEM: fungal (fACC2) (UniProt Q00955)
- Sequence (Q00955 whole entry): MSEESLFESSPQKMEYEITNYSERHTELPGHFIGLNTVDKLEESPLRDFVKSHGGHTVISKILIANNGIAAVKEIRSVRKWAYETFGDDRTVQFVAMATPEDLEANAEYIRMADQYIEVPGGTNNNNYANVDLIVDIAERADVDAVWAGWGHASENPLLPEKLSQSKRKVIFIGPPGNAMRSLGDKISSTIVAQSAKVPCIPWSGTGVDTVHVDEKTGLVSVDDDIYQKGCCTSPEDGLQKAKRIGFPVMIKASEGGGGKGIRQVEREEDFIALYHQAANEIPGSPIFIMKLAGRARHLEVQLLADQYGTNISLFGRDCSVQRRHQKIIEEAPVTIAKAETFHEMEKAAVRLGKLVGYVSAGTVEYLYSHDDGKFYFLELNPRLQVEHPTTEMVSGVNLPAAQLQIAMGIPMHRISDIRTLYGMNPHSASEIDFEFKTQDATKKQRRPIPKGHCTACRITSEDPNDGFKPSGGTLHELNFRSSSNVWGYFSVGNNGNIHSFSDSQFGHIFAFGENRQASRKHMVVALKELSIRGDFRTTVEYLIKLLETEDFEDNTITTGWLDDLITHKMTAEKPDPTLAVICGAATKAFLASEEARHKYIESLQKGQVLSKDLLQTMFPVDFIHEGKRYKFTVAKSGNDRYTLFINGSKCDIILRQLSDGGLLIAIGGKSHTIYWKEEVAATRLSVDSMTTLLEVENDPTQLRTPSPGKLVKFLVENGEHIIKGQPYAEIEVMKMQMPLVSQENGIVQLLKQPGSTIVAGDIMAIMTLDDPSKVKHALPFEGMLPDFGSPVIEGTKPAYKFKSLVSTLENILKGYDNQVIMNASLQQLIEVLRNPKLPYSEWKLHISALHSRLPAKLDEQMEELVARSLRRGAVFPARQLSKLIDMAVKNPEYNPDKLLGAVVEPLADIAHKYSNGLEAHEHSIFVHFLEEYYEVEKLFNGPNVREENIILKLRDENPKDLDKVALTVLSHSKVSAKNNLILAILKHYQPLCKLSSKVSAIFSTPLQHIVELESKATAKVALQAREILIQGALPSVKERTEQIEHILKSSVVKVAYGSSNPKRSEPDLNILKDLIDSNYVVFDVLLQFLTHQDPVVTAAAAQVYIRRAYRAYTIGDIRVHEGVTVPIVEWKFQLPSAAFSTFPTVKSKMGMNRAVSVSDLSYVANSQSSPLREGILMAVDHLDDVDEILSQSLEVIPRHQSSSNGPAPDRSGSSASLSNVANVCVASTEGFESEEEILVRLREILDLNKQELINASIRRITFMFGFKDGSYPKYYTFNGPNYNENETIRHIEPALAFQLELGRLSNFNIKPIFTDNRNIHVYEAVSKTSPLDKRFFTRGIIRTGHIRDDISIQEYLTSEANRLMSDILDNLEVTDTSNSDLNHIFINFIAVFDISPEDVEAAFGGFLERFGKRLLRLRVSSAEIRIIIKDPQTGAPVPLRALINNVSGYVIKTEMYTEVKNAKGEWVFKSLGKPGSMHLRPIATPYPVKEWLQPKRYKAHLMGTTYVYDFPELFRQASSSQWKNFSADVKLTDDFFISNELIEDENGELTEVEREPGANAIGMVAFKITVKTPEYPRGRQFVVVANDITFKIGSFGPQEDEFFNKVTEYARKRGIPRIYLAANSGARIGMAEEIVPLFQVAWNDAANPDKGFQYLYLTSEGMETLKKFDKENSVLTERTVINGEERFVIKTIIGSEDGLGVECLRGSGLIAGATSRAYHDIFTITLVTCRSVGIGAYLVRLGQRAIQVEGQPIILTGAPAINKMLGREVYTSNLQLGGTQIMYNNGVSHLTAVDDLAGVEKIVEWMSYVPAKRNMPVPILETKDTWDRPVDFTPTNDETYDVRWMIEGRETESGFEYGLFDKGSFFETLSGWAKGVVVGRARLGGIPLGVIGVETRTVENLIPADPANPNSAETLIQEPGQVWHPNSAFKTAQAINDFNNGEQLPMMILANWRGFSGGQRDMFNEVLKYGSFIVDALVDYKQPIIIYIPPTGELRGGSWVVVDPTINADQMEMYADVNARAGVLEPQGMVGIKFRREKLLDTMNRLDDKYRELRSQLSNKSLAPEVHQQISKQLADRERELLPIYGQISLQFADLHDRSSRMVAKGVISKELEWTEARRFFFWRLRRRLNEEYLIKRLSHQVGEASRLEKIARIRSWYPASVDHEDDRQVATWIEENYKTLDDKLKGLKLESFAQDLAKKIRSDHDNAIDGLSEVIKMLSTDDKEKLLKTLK
- CONDITION DETAILS: read-out: fACC2 (in vitro ACC2 Inhibition Assay, IC50); Table 2a; ADP-Glo, 5 nM ACC2, 20 μM ATP, 20 μM acetyl-CoA

In [3]: df
Out[3]:
                                   compound       result
0  COc1ccc(F)cc1[C@H](Cn1c(=O)n(C(C)(C)C(N)=O)c(=O)c2c(C)c(-n3nccn3)sc21)OCC(C)(C)C#N    1 to 5 nM
1  COc1ccc(F)cc1[C@H](Cn1c(=O)n([C@@H](C)C(=O)NC(C)C)c(=O)c2c(C)c(-n3nccn3)sc21)OCC(C)(C)O  0.4 to 1 nM
2  Cc1c(-n2nccn2)sc2c1c(=O)n(C(C)(C)C(=O)N1CCCC1)c(=O)n2C[C@H](OC1CCOCC1)c1cc(F)ccc1OCC1COC1    1 to 5 nM
3  CCc1ccc(F)cc1[C@H](Cn1c(=O)n(C(C)(C)C(=O)NC(C)C)c(=O)c2c(C)c(-n3nccn3)sc21)OCCO  0.4 to 1 nM

**Q:** Query: IC50; subject: COc1ccc(F)cc1[C@H](Cn1c(=O)n([C@H](C)C(=O)NC2CCC2)c(=O)c2c(C)c(-n3nccn3)sc21)OCCO
**A:** 0.4 to 1 nM

**Q:** Which IC50 is reported for this compound? COc1ccc(F)cc1[C@H](Cn1c(=O)n(C(C)(C)C(N)=O)c(=O)c2c(C)c(-n3nccn3)sc21)OC[C@H](C)C#N
**A:** 0.4 to 1 nM

**Q:** Bench note: what IC50 did COc1ccc(F)cc1[C@H](Cn1c(=O)n(C(C)(C)C(=O)NC(C)C)c(=O)c2c(C)c(-n3nccn3)sc21)OCCC(C)=O show?
**A:** 1 to 5 nM

**Q:** What does the record list as IC50 for COc1ccccc1[C@H](Cn1c(=O)n(C(C)(C)C(=O)N2CC=CC2)c(=O)c2c(C)c(-n3nccn3)sc21)OC1CCOCC1 ?
**A:** 1 to 5 nM

**Q:** Suppose we examine the compound COc1ccc(F)cc1[C@H](Cn1c(=O)n(C(C)(C)C(=O)N2CCCC2)c(=O)c2c(C)c(-n3nccn3)sc21)OCC(O)C(F)(F)F (stereo partly shown) ; what IC50 value has been reported?
**A:** 1 to 5 nM

**Q:** Need IC50, item COc1ccc(F)cc1[C@H](Cn1c(=O)n(C(C)(C)C(=O)N2CCCC2)c(=O)c2c(C)c(-n3nccn3)sc21)OCCN(C)C
**A:** 1 to 5 nM

**Q:** Using the record for COCCCO[C@@H](Cn1c(=O)n(C(C)(C)C(=O)NC(C)C)c(=O)c2c(C)c(-n3nccn3)sc21)c1cc(F)ccc1OC , report its IC50.
**A:** 0.4 to 1 nM

**Q:** IC50 lookup needed for COc1ccc(F)cc1[C@H](Cn1c(=O)n(C(C)(C)C(=O)NC2CCC2)c(=O)c2c(C)c(-n3nccn3)sc21)OC1CCOCC1 , thanks.
**A:** 1 to 5 nM

**Q:** Would you kindly share the measured IC50 for CCc1ccc(F)cc1[C@H](Cn1c(=O)n(C(C)(C)C(=O)O)c(=O)c2c(C)c(-n3nccn3)sc21)OCCO ?
**A:** 1 to 5 nM

**Q:** Given the compound COc1ccc(F)cc1[C@H](Cn1c(=O)n([C@@H](C)C(N)=O)c(=O)c2c(C)c(-n3nccn3)sc21)OCC(C)(C)O , what is its reported IC50?
**A:** 0.4 to 1 nM

**Q:** Recorded IC50 for COCCO[C@@H](Cn1c(=O)n(C(C)(C)C(=O)NC2CCC2)c(=O)c2c(C)c(-n3nccn3)sc21)c1cc(F)ccc1OC [Compound I-100] , please?
**A:** 1 to 5 nM

**Q:** Quick one: IC50 for Cc1c(-n2nccn2)sc2c1c(=O)n(C(C)(C)C(=O)NC(C)C)c(=O)n2C[C@H](OC1CCOCC1)c1cc(F)ccc1OCC#N ?
**A:** 0.4 to 1 nM

**Q:** State the recorded IC50 for this entry: CCO[C@@H](Cn1c(=O)n(C(C)(C)C(=O)N2CCCC2)c(=O)c2c(C)c(-n3nccn3)sc21)c1cc(F)ccc1OC
**A:** 1 to 5 nM

* * *

- ASSAY SYSTEM: UniProt Q00955
- CONDITION DETAILS: read-out: fACC2 (in vitro ACC2 Inhibition Assay, IC50); Table 2b, additional results; ADP-Glo, 5 nM ACC2, 20 μM ATP, 20 μM acetyl-CoA
Below, each of the compounds is paired with its reported IC50 value.

Solved cases below.
>>> df
                                   compound       result
0  COCCO[C@@H](Cn1c(=O)n(C(C)(C)C(=O)NC2CCC2)c(=O)c2c(C)c(-n3nccn3)sc21)c1cc(F)ccc1OC [Compound I-100]    1 to 5 nM
1  Cc1c(-n2nccn2)sc2c1c(=O)n(C(C)(C)C(=O)NC(C)C)c(=O)n2C[C@H](O[C@H]1CC[C@@H](O)CC1)c1cc(F)ccc1OCC#N  0.3 to 1 nM

**Q:** // IC50 lookup, key: COc1ccc(F)cc1[C@H](Cn1c(=O)n([C@@H](C)C(=O)NC2CCC2)c(=O)c2c(C)c(-n3nccn3)sc21)OCCO
**A:** 1 to 5 nM

* * *

- ASSAY SYSTEM: UniProt:Q00955
- CONDITION DETAILS: read-out: fACC2 (in vitro ACC2 Inhibition Assay, IC50); Table 2b, additional results; ADP-Glo, 5 nM ACC2, 20 μM ATP, 20 μM acetyl-CoA
pIC50: −log10 of the molar value.
A collection of compounds and their measured pIC50

Use the examples below as a reference point.
In [3]: df
Out[3]:
                                   compound    assay_system        result
0  COCCO[C@@H](Cn1c(=O)n(C(C)C(=O)N2CCCC2)c(=O)c2c(C)c(-n3nccn3)sc21)c1cc(F)ccc1OC (stereo partly shown) [Compound I-64]  UniProt:Q00955  8.30 to 9.00
1  CCOC(=O)C(C)(C)n1c(=O)c2c(C)c(-n3nccn3)sc2n(C[C@H](OCCO)c2cc(F)ccc2OC)c1=O [Compound I-74]  UniProt:Q00955  8.30 to 9.00
2  COc1ccccc1[C@H](Cn1c(=O)n(C(C)(C)C(=O)N2CC=CC2)c(=O)c2c(C)c(-n3nccn3)sc21)OC1CCOCC1 [Compound I-101]  UniProt:Q00955  8.30 to 9.00
3  COc1ccccc1[C@@H](O)Cn1c(=O)n(C(C)(C)C(=O)NC(C)C)c(=O)c2c(C)c(-n3nccn3)sc21 [Compound I-256]  UniProt:Q00955  8.30 to 9.00
4  COc1ccc(F)cc1[C@H](Cn1c(=O)n(C(C)(C)C(=O)N(C)C)c(=O)c2c(C)c(-n3nccn3)sc21)OC(C)C [Compound I-49]  UniProt:Q00955  8.30 to 9.00

**Q:** Request the reported pIC50 associated with COc1ccc(F)cc1[C@@H](CCCO)Cn1c(=O)n(C(C)(C)C(=O)NC(C)C)c(=O)c2c(C)c(-n3nccn3)sc21 [Compound I-267]
**A:** 8.30 to 9.00

**Q:** Recorded pIC50 of COc1ccc(F)cc1[C@H](Cn1c(=O)n([C@H](C)C(=O)N(C)C(C)C)c(=O)c2c(C)c(-n3nccn3)sc21)OCC(C)(C)O [Compound I-169] , please.
**A:** 8.30 to 9.00

**Q:** For the compound COc1ccc(F)cc1[C@@H](Cn1c(=O)n(C(C)(C)C(=O)NC(C)C)c(=O)c2c(C)c(-n3nccn3)sc21)OC(=O)CO [Compound I-261] , what pIC50 is on record?
**A:** 9.00 to 9.52

**Q:** For the compound COc1ccc(F)cc1[C@H](Cn1c(=O)n(C(C)(C)C(=O)O)c(=O)c2c(C)c(-n3nccn3)sc21)OCC(C)(C)C#N [Compound I-149] , what pIC50 is on record?
**A:** 8.30 to 9.00

**Q:** Item COc1ccc(F)cc1[C@H](Cn1c(=O)n(C(C)(C)C(=O)N2CC=CC2)c(=O)c2c(C)c(-n3nccn3)sc21)OC[C@@H](C)O [Compound I-63] has what recorded pIC50?
**A:** 9.00 to 9.52

**Q:** Could you tell me which pIC50 is on file for COc1ccc(F)cc1[C@H](Cn1c(=O)n([C@H](C)C(=O)N2CCCC2)c(=O)c2c(C)c(-n3nccn3)sc21)OCCC#N [Compound I-187] ?
**A:** 8.30 to 9.00

**Q:** Which pIC50 value belongs to CCc1ccc(F)cc1[C@@H](Cn1c(=O)n(C(C)(C)C(=O)NC(C)C)c(=O)c2c(C)c(-n3nccn3)sc21)OC[C@H](C)C#N [Compound I-245] ?
**A:** 9.00 to 9.52

**Q:** Requested field: pIC50. Item: COCCO[C@@H](Cn1c(=O)n(C(C)(C)C(=O)NC2CCCCC2)c(=O)c2c(C)c(-n3nccn3)sc21)c1cc(F)ccc1OC [Compound I-103]
**A:** 8.30 to 9.00

These data points were gathered from patent US10800791B2.
